target: SARS-CoV-2 spike protein on whole SARS-CoV-2 virus (SARS-CoV-2, UniProt P0DTC2 14-1273); assay: cell-based or functional assay
ASSAY_METRIC: NT50 (nM), half neutralization titer

Here's what some known entries look like.
S01 IgG1 (antibody, V domains shown, also called 501) VH: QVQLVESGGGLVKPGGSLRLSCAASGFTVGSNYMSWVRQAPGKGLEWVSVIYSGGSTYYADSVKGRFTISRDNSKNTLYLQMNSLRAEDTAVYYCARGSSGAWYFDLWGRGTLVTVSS VL: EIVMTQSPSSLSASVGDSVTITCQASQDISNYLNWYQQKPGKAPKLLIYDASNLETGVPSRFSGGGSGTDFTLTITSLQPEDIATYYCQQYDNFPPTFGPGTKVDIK    14.6 nM
E01 IgG1 (antibody, V domains shown, also called E1) VH: QVQLQQWGAGLLKPSETLSLKCAVYGGSFSGYYWGWIRQSTGKGLEWIGEINRSGSTNYNPSLKSRVTISVDTSKNQFSLKLSSVTAADTAVYYCARGGARYYYGSGSYRSTPRPYYFDYWGQGTLVTVSS VL: SYELTQPPSVSVAPGETARITCGGDNIGRRHVHWYQQKPGQAPVLVIYDDSDRPSGIPDRFSGSNSGNTATLTIGRVEAGDEADYYCQVWGSSNDPHVFGTGTKLTVL    6.4 nM

Please look at the following binder next.
So, H01 IgG1 (antibody, V domains shown, also called H1) VH: QVTLKESGPVLVKPTETLTLTCTVSGFSLSNARMGVSWIRQPPGKALEWLAHIFSNGEKSYSTSLKSRLTISKDTSKSQVVLTMTNMDPVDTATYYCARTLDYYDSSGYLVGGAFDIWGQGTMVTVSS VL: QPGLTQPPSVSLAPGQTARITCGGNNIGSKSVHWYQQKPGQAPVLVVYDDSDRPSGIPERFSGSNAGNTATLTISRVEAGDEADYYCQVWDSRSDQYVFGTRTKLTVL ? Its NT50 (nM), half neutralization titer was 69.6 nM
